- PROTOCOL: Plasma pharmacokinetics after single oral dose of Δ8-THCV in MCT oil (LC-MS/MS, non-compartmental analysis)
- Assay type: in vivo, human
- ASSAY_CONTEXT: human, plasma, po, 50 mg, 50 mg single oral Δ8-THCV in MCT oil; Median (Range)
Listing: Cmax of selected molecules
Respond with the bare value in ng/mL.

Examples from the recorded data:
CCCc1cc(O)c2c(c1)OC(C)(C)[C@@H]1CC=C(C)C[C@@H]21 [Δ8-THCV, Δ8-tetrahydrocannabivarin] ... 10
CCCc1cc(O)c2c(c1)OC(C)(C)[C@@H]1CC=C(CO)C[C@@H]21 (racemic) [11-OH-Δ8-THCV, (±)-11-hydroxy-Δ8-THCV] ... 1.9
CCCc1cc(O)c2c(c1)OC(C)(C)[C@@H]1CC=C(C(=O)O)C[C@@H]21 ... 275

Moving on to the next molecule.
Q) Cmax lookup needed for `CCCc1cc(O)c2c(c1)OC(C)(C)[C@@H]1CCC(C(=O)O)=C[C@@H]21` , thanks.
A) 7.7

---

Listing: Tmax of selected compounds
- PROTOCOL: Plasma pharmacokinetics after single oral dose of Δ8-THCV in MCT oil (LC-MS/MS, non-compartmental analysis)
- Assay type: in vivo, human
- ASSAY_CONTEXT: human, plasma, po, 200 mg, 200 mg single oral Δ8-THCV in MCT oil; plasma; Median (Range); read-out: tmax
Respond with the bare value in h.

Examples from the recorded data:
CCCc1cc(O)c2c(c1)OC(C)(C)[C@@H]1CC=C(CO)C[C@@H]21 (racemic) [11-OH-Δ8-THCV, (±)-11-hydroxy-Δ8-THCV] ... 4
CCCc1cc(O)c2c(c1)OC(C)(C)[C@@H]1CCC(C)=C[C@@H]21 [Δ9-THCV, Δ9-tetrahydrocannabivarin] ... 4
CCCc1cc(O)c2c(c1)OC(C)(C)[C@@H]1CC=C(C)C[C@@H]21 [Δ8-THCV, Δ8-tetrahydrocannabivarin] ... 4
CCCc1cc(O)c2c(c1)OC(C)(C)[C@@H]1CC=C(C(=O)O)C[C@@H]21 ... 6
CCCc1cc(O)c2c(c1)OC(C)(C)[C@@H]1CCC(C(=O)O)=C[C@@H]21 ... 6

Moving on to the next compound.
Q) Tmax lookup needed for CCCCCc1cc(O)c2c(c1)OC(C)(C)[C@@H]1CC=C(C(=O)O)CC21 (single isomer, unassigned; (+)) [Δ8-THC-COOH, (+)-11-nor-Δ8-THC-9-carboxylic acid] , thanks.
A) 6

---

Listing: Clast (last quantifiable concentration) of selected molecules
- PROTOCOL: Plasma pharmacokinetics after single oral dose of Δ8-THCV in MCT oil (LC-MS/MS, non-compartmental analysis)
- Format: in vivo, human
- Parameters: unit not given here
- ASSAY_CONTEXT: 100 mg single oral Δ8-THCV in MCT oil; plasma; Median (Range)
- Method: The study was a two-phase, dose-ranging, placebo-controlled trial in 21 healthy participants to assess the safety, tolerability, PK, and PD of an oral formulation of Δ8-THCV. A detailed description of the study was published elsewhere. […] Plasma samples were analyzed using a validated high-performance liquid chromatography–tandem mass spectrometry (LC-MS/MS) assay. […] For the PK analysis, concentrations below the lower limit of quantification were set to 0 ng/mL. […]

CCCc1cc(O)c2c(c1)OC(C)(C)[C@@H]1CCC(C)=C[C@@H]21 [Δ9-THCV, Δ9-tetrahydrocannabivarin] ... 0.8 (0.5–1.9)
CCCc1cc(O)c2c(c1)OC(C)(C)[C@@H]1CC=C(CO)C[C@@H]21 (racemic) [11-OH-Δ8-THCV, (±)-11-hydroxy-Δ8-THCV] ... 1.1 (0.5–3.8)
CCCc1cc(O)c2c(c1)OC(C)(C)[C@@H]1CC=C(C)C[C@@H]21 [Δ8-THCV, Δ8-tetrahydrocannabivarin] ... 3.1 (0.8–9.9)
CCCc1cc(O)c2c(c1)OC(C)(C)[C@@H]1CC=C(C(=O)O)C[C@@H]21 [Δ8-THCV-COOH, 11-nor-9-carboxy-Δ8-THCV] ... 304 (153–590)
CCCc1cc(O)c2c(c1)OC(C)(C)[C@@H]1CCC(C(=O)O)=C[C@@H]21 [Δ9-THCV-COOH, 11-nor-9-carboxy-Δ9-THCV] ... 10.5 (6.2–16.1)

Moving on to the next molecule.
Q) Clast (last quantifiable concentration) lookup needed for CCCCCc1cc(O)c2c(c1)OC(C)(C)[C@@H]1CC=C(C(=O)O)CC21 (single isomer, unassigned; (+)) [Δ8-THC-COOH, (+)-11-nor-Δ8-THC-9-carboxylic acid] , thanks.
A) 1.3 (1–1.7)

---

- PROTOCOL: Plasma pharmacokinetics after single oral dose of Δ8-THCV in MCT oil (LC-MS/MS, non-compartmental analysis)
- Type: in vivo, human
- ASSAY_CONTEXT: 200 mg single oral Δ8-THCV in MCT oil; plasma; Mean (±SD)
Listing: tlast (time to last quantifiable concentration) of selected compounds

Examples from the recorded data:
CCCc1cc(O)c2c(c1)OC(C)(C)[C@@H]1CC=C(C(=O)O)C[C@@H]21 ... 8 (±0)
CCCCCc1cc(O)c2c(c1)OC(C)(C)[C@@H]1CC=C(C(=O)O)CC21 (single isomer, unassigned; (+)) [Δ8-THC-COOH, (+)-11-nor-Δ8-THC-9-carboxylic acid] ... 7.5 (±1.2)

Moving on to the next compound.
Q) tlast (time to last quantifiable concentration) lookup needed for CCCc1cc(O)c2c(c1)OC(C)(C)[C@@H]1CC=C(C)C[C@@H]21 [Δ8-THCV, Δ8-tetrahydrocannabivarin] , thanks.
A) 8 (±0)

---

Listing: AUC(0-t) of selected molecules
- PROTOCOL: Plasma pharmacokinetics after single oral dose of Δ8-THCV in MCT oil (LC-MS/MS, non-compartmental analysis)
- Assay type: in vivo, human
- ASSAY_CONTEXT: human, plasma, po, 100 mg, 100 mg single oral Δ8-THCV in MCT oil; Median (Range)
Respond with the bare value in ng·h/mL.

Examples from the recorded data:
CCCCCc1cc(O)c2c(c1)OC(C)(C)[C@@H]1CC=C(C(=O)O)CC21 (single isomer, unassigned; (+)) [Δ8-THC-COOH, (+)-11-nor-Δ8-THC-9-carboxylic acid] ... 1.6
CCCc1cc(O)c2c(c1)OC(C)(C)[C@@H]1CC=C(C)C[C@@H]21 [Δ8-THCV, Δ8-tetrahydrocannabivarin] ... 58.4
CCCc1cc(O)c2c(c1)OC(C)(C)[C@@H]1CCC(C)=C[C@@H]21 [Δ9-THCV, Δ9-tetrahydrocannabivarin] ... 1.2
CCCc1cc(O)c2c(c1)OC(C)(C)[C@@H]1CCC(C(=O)O)=C[C@@H]21 [Δ9-THCV-COOH, 11-nor-9-carboxy-Δ9-THCV] ... 86.5
CCCc1cc(O)c2c(c1)OC(C)(C)[C@@H]1CC=C(CO)C[C@@H]21 (racemic) [11-OH-Δ8-THCV, (±)-11-hydroxy-Δ8-THCV] ... 12.4

Q) AUC(0-t) lookup needed for CCCc1cc(O)c2c(c1)OC(C)(C)[C@@H]1CC=C(C(=O)O)C[C@@H]21 [Δ8-THCV-COOH, 11-nor-9-carboxy-Δ8-THCV] , thanks.
A) 3130

---

- PROTOCOL: Plasma pharmacokinetics after single oral dose of Δ8-THCV in MCT oil (LC-MS/MS, non-compartmental analysis)
- Type: in vivo, human
- ASSAY_CONTEXT: human, plasma, oral, 12.5 mg, 2 h; 12.5 mg Δ8-THCV dose; Mean (SD, %CV)
Listing: concentration at 2 h of selected compounds
Respond with the bare value in ng/mL.

Q) concentration at 2 h lookup needed for `CCCc1cc(O)c2c(c1)OC(C)(C)[C@@H]1CC=C(C(=O)O)C[C@@H]21` , thanks.
A) 30.1

Q) concentration at 2 h lookup needed for CCCCCc1cc(O)c2c(c1)OC(C)(C)[C@@H]1CC=C(C(=O)O)CC21 (single isomer, unassigned; (+)) [Δ8-THC-COOH, (+)-11-nor-Δ8-THC-9-carboxylic acid] , thanks.
A) 0

Q) concentration at 2 h lookup needed for `CCCc1cc(O)c2c(c1)OC(C)(C)[C@@H]1CCC(C(=O)O)=C[C@@H]21` , thanks.
A) 0.5

Q) concentration at 2 h lookup needed for CCCc1cc(O)c2c(c1)OC(C)(C)[C@@H]1CC=C(CO)C[C@@H]21 (racemic) [11-OH-Δ8-THCV, (±)-11-hydroxy-Δ8-THCV] , thanks.
A) 0.1

Q) concentration at 2 h lookup needed for CCCc1cc(O)c2c(c1)OC(C)(C)[C@@H]1CCC(C)=C[C@@H]21 [Δ9-THCV, Δ9-tetrahydrocannabivarin] , thanks.
A) 0

Q) concentration at 2 h lookup needed for CCCc1cc(O)c2c(c1)OC(C)(C)[C@@H]1CC=C(C)C[C@@H]21 [Δ8-THCV, Δ8-tetrahydrocannabivarin] , thanks.
A) 0.4

The reported measurements were obtained from paper PMC11676667.
